measured_on: CAMK2G (human)
procedure_text: radiometric filter-binding kinase assay, Kinase HotSpot
test_parameters: compound 0.5 µM; ATP 10 µM

{"columns": ["smi", "unit_abbrev", "residual activity"],
 "data": [
  ["COc1cc2ncnc(Nc3ccc(Oc4ccccc4)cc3)c2cc1OC", "%", 94],
  ["Ic1cccc(CSc2nnc(-c3ccncc3)o2)c1", "%", 96.8],
  ["N#Cc1c[nH]c2c[nH]/c(=N\\Cc3cccnc3)cc2/c1=N\\c1ccc(F)c(Cl)c1", "%", 91.2],
  ["CN(C)c1ccc(/C=C2\\C(=O)Nc3ccccc32)cc1", "%", 99.6],
  ["c1ccc2c(-c3ccncc3)c[nH]c2c1", "%", 92.6],
  ["Cc1nc(-c2ccccc2)c(-c2ccncc2)o1", "%", 91.7],
  ["NC(=O)c1cccc(-c2cc(Nc3ccc(OC(F)(F)F)cc3)ncn2)c1", "%", 102],
  ["CN(C)CCCn1cc(C2=C(c3c[nH]c4ccccc34)C(=O)NC2=O)c2ccccc21", "%", 73.3],
  ["C[C@@H]1CCN(C(=O)CC#N)C[C@@H]1N(C)c1ncnc2[nH]ccc12", "%", 127],
  ["O=C(c1cc2cc(O)ccc2[nH]1)c1cc2cc(O)ccc2[nH]1", "%", 89.5],
  ["O=C1NC(=O)c2c1c1c3ccccc3[nH]c1n1cncc21", "%", 52.3]
]}
